B1: DULLARD (parent)
chain: LVVFTASMEIYGSAVADKLDNSRS

- Variants of: B1
- experiment: protein stability index of a GFP-peptide fusion (GPS, HEK-293T) (PSI 1-6); higher = more stable;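 also: lentivirally expressed fusions sorted by FACS into six bins by GFP to DsRed ratio, PSI derived from sequencing read proportions per bin multiplied by bin number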
- stated conditions: c terminus: a fixed tail appended
assay readout: protein stability index
Answers are plain numbers.

Use these answered entries as a reference point.
INSERT INTO assay_data (construct_sequence, assay_readout, numeric_result) VALUES
  ('LVDFTASMEIYGSAVADKLDNSRS', 'protein stability index', 3.23),
  ('LVVFTASMEIYGSACADKLDNSRS', 'protein stability index', 1.95),
  ('LVVFTQSMEIYGSAVADKLDNSRS', 'protein stability index', 2.02);

--- query ---
INPUT: What does the data say about its protein stability index? Entry: "LVVFTASMEIYGSAVADKLTNSRS"
OUTPUT: 2.02
